combination Emax by entry:
Test system: EN (Endometrial Carcinoma)
assay.text: combination Emax (second highest fraction inhibited in the dose matrix, 72 h); higher = more inhibition; extreme values may be limits of the assay
parameter: combination Emax

* CN(CCO)CC[C@H](CSc1ccccc1)Nc1ccc(S(=O)(=O)NC(=O)c2ccc(N3CCC([C@@H](O)c4ccccc4-c4ccc(Cl)cc4)CC3)cc2)cc1S(=O)(=O)C(F)(F)F [AZD4320] + C1CN(CCC1(C(=O)N[C@@H](CCO)C2=CC=C(C=C2)Cl)N)C3=NC=NC4=C3C=CN4 [Capivasertib] (first compound max 1 µM, 7x7, partner max 3 µM) | 0.576
* Cc1c2c(nn1C)CSCc1cc(n(C)n1)CSc1cc(c3ccccc3c1)OCCCc1c(C(=O)O)n(C)c3c-2c(Cl)ccc13 [AZD5991] + C1CN(CCC1(C(=O)N[C@@H](CCO)C2=CC=C(C=C2)Cl)N)C3=NC=NC4=C3C=CN4 [Capivasertib] (first compound max 1 µM, 7x7, partner max 3 µM) | 0.848
* CN(CCO)CC[C@H](CSc1ccccc1)Nc1ccc(S(=O)(=O)NC(=O)c2ccc(N3CCC([C@@H](O)c4ccccc4-c4ccc(Cl)cc4)CC3)cc2)cc1S(=O)(=O)C(F)(F)F [AZD4320] + Cc1cc2ncnn2cc1Nc1ncc2c(n1)n(C1CCOCC1)c(=O)n2C [AZD7648] (first compound max 1 µM, 7x7, partner max 10 µM) | 0.304

====

System: COLO-829 (Melanoma)
assay.text: combination Emax (second highest fraction inhibited in the dose matrix, 72 h); higher = more inhibition; extreme values may be limits of the assay
Use 0.2 as the dividing line for combination Emax, with the line itself on the True side and lower values as False.

- CN(C)CCCOc1ccc(-c2ccc3ncc4c(c3c2)n(C2CCOCC2)c(=O)n4C)cn1 [AZD0156] + O=C(c1cc(Cc2n[nH]c(=O)c3ccccc23)ccc1F)N1CCN(C(=O)C2CC2)CC1 [Olaparib] (first compound max 3 µM, partner max 3 µM): False
- CC1(C)CCC(CN2CCN(c3ccc(C(=O)NS(=O)(=O)c4ccc(NCC5CCOCC5)c([N+](=O)[O-])c4)c(Oc4cnc5[nH]ccc5c4)c3)CC2)=C(c2ccc(Cl)cc2)C1 [Venetoclax] + CN(C)CCCOc1ccc(-c2ccc3ncc4c(c3c2)n(C2CCOCC2)c(=O)n4C)cn1 [AZD0156] (first compound max 1 µM, 7x7, partner max 1 µM): True
- CC(=O)Nc1cccc(-n2c(=O)n(C3CC3)c(=O)c3c(Nc4ccc(I)cc4F)n(C)c(=O)c(C)c32)c1 [Trametinib] + Cc1nc(-c2cn3c(n2)-c2ccc(-c4cnn(C(C)(C)C(N)=O)c4)cc2OCC3)n(C(C)C)n1 [Taselisib] (first compound max 1 µM, 7x7, partner max 10 µM): True
- Cc1c2c(nn1C)CSCc1cc(n(C)n1)CSc1cc(c3ccccc3c1)OCCCc1c(C(=O)O)n(C)c3c-2c(Cl)ccc13 [AZD5991] + Cc1cc2ncnn2cc1Nc1ncc2c(n1)n(C1CCOCC1)c(=O)n2C [AZD7648] (first compound max 1 µM, 7x7, partner max 10 µM): False
- C[C@@H]1COCCN1c1cc(C2([S@](C)(=N)=O)CC2)nc(-c2ccnc3[nH]ccc23)n1 [AZD6738] + O=C(c1cc(Cc2n[nH]c(=O)c3ccccc23)ccc1F)N1CCN(C(=O)C2CC2)CC1 [Olaparib] (first compound max 10 µM, 7x7, partner max 10 µM): False
- CC1(C)CCC(CN2CCN(c3ccc(C(=O)NS(=O)(=O)c4ccc(NCC5CCOCC5)c([N+](=O)[O-])c4)c(Oc4cnc5[nH]ccc5c4)c3)CC2)=C(c2ccc(Cl)cc2)C1 [Venetoclax] + C[C@@H](Nc1cc(F)cc(F)c1)c1cc(C(=O)N(C)C)cc2c(=O)cc(N3CCOCC3)oc12 [AZD8186] (first compound max 1 µM, 7x7, partner max 3 µM): True
- Cc1c2c(nn1C)CSCc1cc(n(C)n1)CSc1cc(c3ccccc3c1)OCCCc1c(C(=O)O)n(C)c3c-2c(Cl)ccc13 [AZD5991] + CN(C)CCCOc1ccc(-c2ccc3ncc4c(c3c2)n(C2CCOCC2)c(=O)n4C)cn1 [AZD0156] (first compound max 1 µM, 7x7, partner max 1 µM): False

====

Tested on: LB771-HNC (Head and Neck Carcinoma)
assay.text: combination Emax (second highest fraction inhibited in the dose matrix, 72 h); higher = more inhibition; extreme values may be limits of the assay
parameter: combination Emax

- Cc1cc2ncnn2cc1Nc1ncc2c(n1)n(C1CCOCC1)c(=O)n2C [AZD7648] + CN(C)CCCOc1ccc(-c2ccc3ncc4c(c3c2)n(C2CCOCC2)c(=O)n4C)cn1 [AZD0156] (first compound max 10 µM, 7x7, partner max 1 µM): 0.299
- C=CCn1c(=O)c2cnc(Nc3ccc(N4CCN(C)CC4)cc3)nc2n1-c1cccc(C(C)(C)O)n1 [AZD1775] + C1CN(CCC1(C(=O)N[C@@H](CCO)C2=CC=C(C=C2)Cl)N)C3=NC=NC4=C3C=CN4 [Capivasertib] (first compound max 3 µM, partner max 3 µM): 0.696
- C[C@@H](c1ccc2nccn2c1)n1nnc2ncc(-c3cnn(C)c3)nc21 [Savolitinib] + CN(CC[C@H](CSC1=CC=CC=C1)NC2=C(C=C(C=C2)S(=O)(=O)NC(=O)C3=CC=C(C=C3)N4CCC(CC4)[C@H](C5=CC=CC=C5C6=CC=C(C=C6)Cl)O)S(=O)(=O)C(F)(F)F)CCO [AZD4320] (first compound max 1 µM, 7x7, partner max 1 µM): 0.154
- NC1(C(=O)N[C@@H](CCO)c2ccc(Cl)cc2)CCN(c2ncnc3[nH]ccc23)CC1 [Capivasertib] + Cn1cnc2c(F)c(Nc3ccc(Br)cc3Cl)c(C(=O)NOCCO)cc21 [Selumetinib] (first compound max 10 µM, 7x7, partner max 10 µM): 0.51
- CN(C)CCCOc1ccc(-c2ccc3ncc4c(c3c2)n(C2CCOCC2)c(=O)n4C)cn1 [AZD0156] + C[C@@H]1COCCN1C2=NC(=NC(=C2)C3(CC3)[S@](=N)(=O)C)C4=C5C=CNC5=NC=C4 [AZD6738] (first compound max 1 µM, 7x7, partner max 10 µM): 0.48
- Cn1cnc2c(F)c(Nc3ccc(Br)cc3Cl)c(C(=O)NOCCO)cc21 [Selumetinib] + C[C@@H]1COCCN1C2=NC(=NC(=C2)C3(CC3)[S@](=N)(=O)C)C4=C5C=CNC5=NC=C4 [AZD6738] (first compound max 10 µM, 7x7, partner max 10 µM): 0.503
- Cc1c2c(nn1C)CSCc1cc(n(C)n1)CSc1cc(c3ccccc3c1)OCCCc1c(C(=O)O)n(C)c3c-2c(Cl)ccc13 [AZD5991] + C[C@@H](Nc1cc(F)cc(F)c1)c1cc(C(=O)N(C)C)cc2c(=O)cc(N3CCOCC3)oc12 [AZD8186] (first compound max 1 µM, 7x7, partner max 3 µM): 0.486
- Cc1c2c(nn1C)CSCc1cc(n(C)n1)CSc1cc(c3ccccc3c1)OCCCc1c(C(=O)O)n(C)c3c-2c(Cl)ccc13 [AZD5991] + C1CN(CCC1(C(=O)N[C@@H](CCO)C2=CC=C(C=C2)Cl)N)C3=NC=NC4=C3C=CN4 [Capivasertib] (first compound max 1 µM, 7x7, partner max 3 µM): 0.587
- CC1(C)CCC(CN2CCN(c3ccc(C(=O)NS(=O)(=O)c4ccc(NCC5CCOCC5)c([N+](=O)[O-])c4)c(Oc4cnc5[nH]ccc5c4)c3)CC2)=C(c2ccc(Cl)cc2)C1 [Venetoclax] + CN(C)CCCOc1ccc(-c2ccc3ncc4c(c3c2)n(C2CCOCC2)c(=O)n4C)cn1 [AZD0156] (first compound max 1 µM, 7x7, partner max 1 µM): 0.124
- COc1cccc(OCCCN)c1-c1cc(Nc2cnc(C#N)cn2)n[nH]1 [Prexasertib] + O=C(c1cc(Cc2n[nH]c(=O)c3ccccc23)ccc1F)N1CCN(C(=O)C2CC2)CC1 [Olaparib] (first compound max 1 µM, 7x7, partner max 10 µM): 0.568
- COc1nnc2ccc(N3CCC(c4ccc(OCCN5CCN(C)C(=O)[C@H]5C)cc4)CC3)nn12 [AZD5153] + C[C@@H]1COCCN1C2=NC(=NC(=C2)C3(CC3)[S@](=N)(=O)C)C4=C5C=CNC5=NC=C4 [AZD6738] (first compound max 1 µM, 7x7, partner max 10 µM): 0.739
- Cc1c2c(nn1C)CSCc1cc(n(C)n1)CSc1cc(c3ccccc3c1)OCCCc1c(C(=O)O)n(C)c3c-2c(Cl)ccc13 [AZD5991] + Cn1cnc2c(F)c(Nc3ccc(Br)cc3Cl)c(C(=O)NOCCO)cc21 [Selumetinib] (first compound max 1 µM, 7x7, partner max 3 µM): 0.429

====

Catalogue of combination Emax readings, one per entry.
Tested on: LoVo (Colorectal Carcinoma)
assay.text: combination Emax (second highest fraction inhibited in the dose matrix, 72 h); higher = more inhibition; extreme values may be limits of the assay
parameter: combination Emax

* Cc1c2c(nn1C)CSCc1cc(n(C)n1)CSc1cc(c3ccccc3c1)OCCCc1c(C(=O)O)n(C)c3c-2c(Cl)ccc13 [AZD5991] + CC(=O)O[C@H]1C(=O)[C@@]2(C)[C@H]([C@H](OC(=O)c3ccccc3)[C@]3(O)C[C@H](OC(=O)[C@H](O)[C@@H](NC(=O)c4ccccc4)c4ccccc4)C(C)=C1C3(C)C)[C@]1(OC(C)=O)CO[C@@H]1C[C@@H]2O [Paclitaxel] (first compound max 1 µM, 7x7, partner max 3 µM) | 0.655
* Cc1cc2ncnn2cc1Nc1ncc2c(n1)n(C1CCOCC1)c(=O)n2C [AZD7648] + CCN(CCO)CCCOc1ccc2c(Nc3cc(CC(=O)Nc4cccc(F)c4)[nH]n3)ncnc2c1 [AZD2811] (first compound max 10 µM, 7x7, partner max 1 µM) | 0.529
* N#Cc1cnc(Nc2cc(NC[C@H]3CNCCO3)c(C(F)(F)F)cn2)cn1 [SRA737] + Nc1ccn([C@@H]2O[C@H](CO)[C@@H](O)C2(F)F)c(=O)n1 [Gemcitabine] (first compound max 10 µM, 7x7, partner max 0.3 µM) | 0.789
* C=CCn1c(=O)c2cnc(Nc3ccc(N4CCN(C)CC4)cc3)nc2n1-c1cccc(C(C)(C)O)n1 [AZD1775] + C[C@@H]1COCCN1C2=NC(=NC(=C2)C3(CC3)[S@](=N)(=O)C)C4=C5C=CNC5=NC=C4 [AZD6738] (first compound max 1 µM, partner max 10 µM) | 0.875
* CN(CCO)CC[C@H](CSc1ccccc1)Nc1ccc(S(=O)(=O)NC(=O)c2ccc(N3CCC([C@@H](O)c4ccccc4-c4ccc(Cl)cc4)CC3)cc2)cc1S(=O)(=O)C(F)(F)F [AZD4320] + CCN(CCO)CCCOc1ccc2c(Nc3cc(CC(=O)Nc4cccc(F)c4)[nH]n3)ncnc2c1 [AZD2811] (first compound max 1 µM, 7x7, partner max 1 µM) | 0.317
* COc1cc2ncnc(Nc3ccc(F)c(Cl)c3)c2cc1OCCCN1CCOCC1 [Gefitinib] + CC(C)n1c(=O)n(C)c2cnc3cc(F)c(-c4ccc(OCCCN5CCCCC5)nc4)cc3c21 [AZD1390] (first compound max 10 µM, 7x7, partner max 0.3 µM) | 0.421
* C=CCn1c(=O)c2cnc(Nc3ccc(N4CCN(C)CC4)cc3)nc2n1-c1cccc(C(C)(C)O)n1 [AZD1775] + CCc1c2c(nc3ccc(O)cc13)-c1cc3c(c(=O)n1C2)COC(=O)[C@]3(O)CC [SN-38] (first compound max 1 µM, partner max 0.3 µM) | 0.818
